test system: OVCAR-5 cervical cancer cells; assay: antitumor activity, sulforhodamine B cell growth assay, OVCAR-5; assay type: cell-based; conditions: OVCAR-5, drug exposure 48 hours; read-out: GI50 value: 50% growth inhibitory concentration
Measured GI50 values are reported for all entries that follow.

| Compound | GI50 |
| --- | --- |
| COC1=C(C)C(=O)C2=C(C1=O)[C@H](CNC(=O)[C@H](C)N)N1C(C2)[C@H]2c3c(cc(C)c(OC)c3O)C[C@@H]([C@@H]1C#N)N2C (stereo partly shown) [Cyanosafracin B, reference compound] | 390 nM |
| C=C1/C=C/CN[C@@H](C)C(=O)NCC2c3c(c(c(C)c4c3OCO4)OC1)C[C@H]1[C@H]3c4c(cc(C)c(OC)c4O)C[C@@H]([C@H](C#N)N21)N3C | 310 nM |
| COc1c(C)cc2c(c1O)C1C3Cc4c5c(C)c6c(c4C(CNC(=O)C(C)NC(=O)OCC4C=C(CO5)CC5C(=O)N(c7ccccc7)C(=O)C45)N3C(C#N)C(C2)N1C)OCO6 (stereo not shown) | 280 nM |
| COc1c(C)cc2c(c1O)C1C3Cc4c5c(C)c6c(c4C(CNC(=O)C(C)NCC=CCO5)N3C(C#N)C(C2)N1C)OCO6 (stereo not shown) | 47 nM |

* * *

Tested on: HT-29 colorectal cancer cells
Test: antitumor activity, sulforhodamine B cell growth assay, HT-29
Type: cell-based
Details: HT-29, drug exposure 48 hours; read-out: GI50 value: 50% growth inhibitory concentration
Method: The THIQ compound containing a macrocyclic structure of the present invention was administered to various cancer cell lines, and the antitumor activity (Go value) was observed. […] Cells were plated at an appropriate density in a 96-well plate in RPMI 1640 together with 5% fetal bovine serum, and adhered overnight. […] The absorbance of the control well (C) and the test well (T) was measured at 525 nm. […]
Measured GI50 values are reported for all entries that follow.

| Compound | GI50 [nM] |
| --- | --- |
| COc1c(C)cc2c(c1O)C1C3Cc4c5c(C)c6c(c4C(CNC(=O)C(C)NC(=O)OCC4C=C(CO5)CC5C(=O)N(c7ccccc7)C(=O)C45)N3C(C#N)C(C2)N1C)OCO6 (stereo not shown) | 72 |
| C=C1/C=C/CN[C@@H](C)C(=O)NCC2c3c(c(c(C)c4c3OCO4)OC1)C[C@H]1[C@H]3c4c(cc(C)c(OC)c4O)C[C@@H]([C@H](C#N)N21)N3C | 86 |
| COc1c(C)cc2c(c1O)C1C3Cc4c5c(C)c6c(c4C(CNC(=O)C(C)NCC=CCO5)N3C(C#N)C(C2)N1C)OCO6 (stereo not shown) | 13 |
| COC1=C(C)C(=O)C2=C(C1=O)[C@H](CNC(=O)[C@H](C)N)N1C(C2)[C@H]2c3c(cc(C)c(OC)c3O)C[C@@H]([C@@H]1C#N)N2C (stereo partly shown) [Cyanosafracin B, reference compound] | 190 |

* * *

Measured GI50 values are reported for all entries that follow.
tested on: SNB-75 central nervous system cancer cells; test: antitumor activity, sulforhodamine B cell growth assay, SNB-75; format: cell-based; details: SNB-75, drug exposure 48 hours; read-out: GI50 value: 50% growth inhibitory concentration

| Compound | Study System | Censor Symbol | GI50 / nM |
| --- | --- | --- | --- |
| COC1=C(C)C(=O)C2=C(C1=O)[C@H](CNC(=O)[C@H](C)N)N1C(C2)[C@H]2c3c(cc(C)c(OC)c3O)C[C@@H]([C@@H]1C#N)N2C (stereo partly shown) [Cyanosafracin B, reference compound] | SNB-75 central nervous system cancer cells | = | 150 |
| COc1c(C)cc2c(c1O)C1C3Cc4c5c(C)c6c(c4C(CNC(=O)C(C)NCC=CCO5)N3C(C#N)C(C2)N1C)OCO6 (stereo not shown) [Compound 42] | SNB-75 central nervous system cancer cells | < | 10 |
| C=C1/C=C/CN[C@@H](C)C(=O)NCC2c3c(c(c(C)c4c3OCO4)OC1)C[C@H]1[C@H]3c4c(cc(C)c(OC)c4O)C[C@@H]([C@H](C#N)N21)N3C [Compound 33] | SNB-75 central nervous system cancer cells | = | 96 |
| COc1c(C)cc2c(c1O)C1C3Cc4c5c(C)c6c(c4C(CNC(=O)C(C)NC(=O)OCC4C=C(CO5)CC5C(=O)N(c7ccccc7)C(=O)C45)N3C(C#N)C(C2)N1C)OCO6 (stereo not shown) [Compound 18] | SNB-75 central nervous system cancer cells | = | 50 |

* * *

Measured GI50 values are reported for all entries that follow.
test system: OVCAR-8 cancer cells; experiment: antitumor activity, sulforhodamine B cell growth assay, OVCAR-8; format: cell-based; settings: OVCAR-8, drug exposure 48 hours; read-out: GI50 value: 50% growth inhibitory concentration
Recorded Metric: GI50 (nM)

| Compound | Recorded Metric | Value Reported |
| --- | --- | --- |
| C=C1/C=C/CN[C@@H](C)C(=O)NCC2c3c(c(c(C)c4c3OCO4)OC1)C[C@H]1[C@H]3c4c(cc(C)c(OC)c4O)C[C@@H]([C@H](C#N)N21)N3C [Compound 33] | GI50 | 180 |
| COc1c(C)cc2c(c1O)C1C3Cc4c5c(C)c6c(c4C(CNC(=O)C(C)NCC=CCO5)N3C(C#N)C(C2)N1C)OCO6 (stereo not shown) [Compound 42] | GI50 | 34 |
| COc1c(C)cc2c(c1O)C1C3Cc4c5c(C)c6c(c4C(CNC(=O)C(C)NC(=O)OCC4C=C(CO5)CC5C(=O)N(c7ccccc7)C(=O)C45)N3C(C#N)C(C2)N1C)OCO6 (stereo not shown) [Compound 18] | GI50 | 130 |
| COC1=C(C)C(=O)C2=C(C1=O)[C@H](CNC(=O)[C@H](C)N)N1C(C2)[C@H]2c3c(cc(C)c(OC)c3O)C[C@@H]([C@@H]1C#N)N2C (stereo partly shown) [Cyanosafracin B, reference compound] | GI50 | 290 |

* * *

tested on: OVCAR-3 cancer cells; assay: antitumor activity, sulforhodamine B cell growth assay, OVCAR-3; format: cell-based; conditions: OVCAR-3, drug exposure 48 hours; read-out: GI50 value: 50% growth inhibitory concentration

| Molecule | GI50 |
| --- | --- |
| C=C1/C=C/CN[C@@H](C)C(=O)NCC2c3c(c(c(C)c4c3OCO4)OC1)C[C@H]1[C@H]3c4c(cc(C)c(OC)c4O)C[C@@H]([C@H](C#N)N21)N3C | 70 nM |
| COC1=C(C)C(=O)C2=C(C1=O)[C@H](CNC(=O)[C@H](C)N)N1C(C2)[C@H]2c3c(cc(C)c(OC)c3O)C[C@@H]([C@@H]1C#N)N2C (stereo partly shown) [Cyanosafracin B, reference compound] | 130 nM |
| COc1c(C)cc2c(c1O)C1C3Cc4c5c(C)c6c(c4C(CNC(=O)C(C)NCC=CCO5)N3C(C#N)C(C2)N1C)OCO6 (stereo not shown) | 15 nM |
| COc1c(C)cc2c(c1O)C1C3Cc4c5c(C)c6c(c4C(CNC(=O)C(C)NC(=O)OCC4C=C(CO5)CC5C(=O)N(c7ccccc7)C(=O)C45)N3C(C#N)C(C2)N1C)OCO6 (stereo not shown) | 43 nM |
